Provenance of the data: BindingDB's records for doi:10.1021/acs.jmedchem.9b00963

# METHOD_DESCRIPTION: Inhibition of BCRP (unknown origin) transfected in HEK293/R2 cells assessed as reversal of topotecan resistance after 5 days by MTS/PMS assay
The entries below are paired with their reported EC50.
Hi! Could you send only the number? It should be in nM, unit omitted.

STRUCTURE_AS_SMILES: Cc1ccc2oc(-c3ccc(OCCCCc4cn(CCN(CCOc5ccc(-c6cc(=O)c7ccccc7o6)cc5)Cc5ccccc5)nn4)cc3)cc(=O)c2c1
QUANTITATIVE_READOUT: 70
--
STRUCTURE_AS_SMILES: COC(=O)c1cccc(COc2c(-c3ccc(OCCOCCn4cc(CN5CCCN(Cc6cn(CCOCCOc7ccc(-c8oc9ccccc9c(=O)c8OCc8cccc(C(=O)OC)c8)cc7)nn6)CC5)nn4)cc3)oc3ccccc3c2=O)c1
QUANTITATIVE_READOUT: 108

Q: Which EC50 value is on record for `O=c1cc(-c2ccc(OCCOCCn3cc(CCCOc4ccc5c(=O)cc(-c6ccccc6)oc5c4)nn3)cc2)oc2ccccc12` ?
A: 67
